Recorded values, source patent US20070203233A1.

# test_details: in vivo
# run_parameters: both, ICR, mouse, po
property_name: LD50 at 7 days (mg/kg)
// note: answer is a bare numeric in mg/kg

Enquiry: Given CCCCC(=O)c1ccccc1C(=O)O [Calcium 2-(α-n-pentanonyl)benzoate, calcium 2-(α-n-pentanonyl)benzoate] , state its recorded LD50 at 7 days.
Return: 2680

---

# Test system: model rats of middle cerebral artery thrombosis (MCAT)
# test_details: Effects on neural symptoms of MCAT rats
# Assay type: in vivo, SD rats
# run_parameters: 200 mg/kg by gavage, behavioral score 6 h after operation (full mark 4)
property_name: Scores 6 hours
Quick one: just the number, no unit, thanks!

>  <molecule>
CCCCC(O)c1ccccc1C(=O)[O-].[K+] (stereo not drawn) [Potassium 2-(α-hydroxypentyl)benzoate]

>  <Scores 6 hours>
3.45

$$$$
>  <molecule>
CCCCC(=O)c1ccccc1C(=O)O.CCCCC(=O)c1ccccc1C(=O)O.c1ccc(CNCCNCc2ccccc2)cc1

>  <Scores 6 hours>
3.27

$$$$
>  <molecule>
CCCCC(=O)c1ccccc1C(=O)O [Calcium 2-(α-n-pentanonyl)benzoate, calcium 2-(α-n-pentanonyl)benzoate]

>  <Scores 6 hours>
3.27

$$$$
>  <molecule>
CCCCC1OC(=O)c2ccccc21 (racemic) [DL-3-n-butylphthalide]

>  <Scores 6 hours>
3.36

$$$$

Let us move to another entry and its Scores 6 hours.
Enquiry: Given CCCCC(=O)c1ccccc1C(=O)[O-].[K+] [Potassium 2-(α-n-pentanonyl)benzoate, potassium 2-(α-n-pentanonyl)benzoate] , state its recorded Scores 6 hours.
Return: 3.20
